Biological target: F-actin (Oryctolagus cuniculus, UniProt P68135)
Test: Cosedimentation of Lifeact–mCherry with F-actin
Assay type: binding, Rabbit (skeletal muscle α-actin)
Settings: 3 μM Lifeact–mCherry, F-buffer pH 8; full-precision fit value, Std dev in next column; unit as printed in Fig 3C
Where no end group is shown, it is not given here.

# substance, Kd
measured = [
    ("E17K: Lifeact E17K variant fused to mCherry (MGVADLIKKFESISKEK; also: fused to mCherry, His tag, end not given here)", "8.08 µM"),
]
